Test system: K-562 leukemia
Assay name: NCI tumour cell line growth inhibition, 48 h
Where a SMILES comes first, the peptide text is derived from it. Bridges are numbered along the chain shown (N, C = ends). Roman numbers before positions name the chains, in order. [ ]: non-standard residue; d: D form. The star is where a group is joined. Heptadecanoyl = CCCCCCCCCCCCCCCCC(=O)*; Phg = N[CH](C(=O)O)c1ccccc1
Measure: TGI

Q: // returns reported TGI for input `COC(=O)c1cc(O)ccc1NC(=O)c1ccc(O)cc1`
A: > 100 µM

Q: // returns reported TGI for input COc1ccc(N2C(=O)CC(c3c[nH]c4ccccc34)C2=O)cc1 (stereo not drawn)
A: > 100 µM

Q: // returns reported TGI for input `COc1cc2c3c(n(CCCN4CCOCC4)c(=O)c2cc1OC)-c1cc2c(cc1C3=O)OCO2`
A: > 100 µM

Q: // returns reported TGI for input `CC1=C/C(=C(/c2ccc(O)c(C)c2)c2ccccc2C(=O)O)C=CC1=O`
A: 44.7 µM

Q: // returns reported TGI for input `CCOC(=O)c1nc2ccc(C(F)(F)F)cc2nc1Nc1ccc(OC)c(OC)c1`
A: > 100 µM

Q: // returns reported TGI for input `COc1ccc(OC)c2c3c(ncc12)-c1cc2c(cc1C3)OCO2`
A: > 100 µM

Q: // returns reported TGI for input CCCCCCCCCCCCCCCCC(=O)N1CCCC1C(=O)NCC(=O)NC(C(=O)N1CCCC1C(=O)NC(CO)C(=O)NC(Cc1ccc(O)cc1)C(=O)NC(CCCCNC(=O)C1CCCN1C(=O)C(CCCCN)NC(=O)C(CCCCN)NC(=O)C(CCCCN)NC(=O)C(CCCNC(=N)N)NC(=O)C(CCCCN)NC(=O)C(N)C(C)C)C(=O)NC(CC(C)C)C(=O)NC(CCCNC(=N)N)C(=O)N1CCCC1C(=O)NCC(N)=O)c1ccccc1 (stereo not drawn) (I: Heptadecanoyl-PG[Phg]PSYKLRPG-NH2 / II: H-VKRKKKP; amide I:7-II:C; configuration not given here)
A: 86.8 µM

Q: // returns reported TGI for input `Cc1c(C)c(C)c(CSC(=N)N)c(C)c1C`
A: 30.2 µM

Q: // returns reported TGI for input `Cc1ccc2cccc(OC(=O)c3cc4c(cc3Cl)Sc3nccn3S4(=O)=O)c2n1`
A: 23.9 µM

Q: // returns reported TGI for input `CCOC(=O)c1c2c(n3cccc(F)c13)C(=O)c1ncccc1C2=O`
A: > 100 µM

Q: // returns reported TGI for input Clc1cccc(Cl)c1C1SCc2nc3ncccc3n21 (stereo not drawn)
A: > 100 µM

Q: // returns reported TGI for input `COc1cc2c(cc1OC)C(=O)/C(=C/c1ccccc1)C2`
A: > 65.6 µM

Q: // returns reported TGI for input COc1ccc(C2SC(C)C(=O)N2NC(=O)C(O)c2ccccc2)cc1 (stereo not drawn)
A: > 100 µM

Q: // returns reported TGI for input `C/C(CN1C(=O)c2ccccc2C1=O)=N\NS(C)(=O)=O`
A: > 100 µM

Q: // returns reported TGI for input `C/C(=C\c1ccc2c(c1)OCO2)[N+](=O)[O-]`
A: > 100 µM

Q: // returns reported TGI for input `COC(=O)/C(Br)=C/c1c[nH]c2ccc(Br)cc12`
A: > 100 µM

Q: // returns reported TGI for input `[O-][n+]1onc2c1-c1nonc1CC2`
A: > 100 µM

Q: // returns reported TGI for input CN(C)CC1CN(C(=O)Nc2ccccc2)C(=N)O1 (stereo not drawn)
A: > 100 µM

Q: // returns reported TGI for input `O=CN/C=C/c1ccccc1O`
A: > 31.6 µM

Q: // returns reported TGI for input `Cc1ccc(S(=O)(=O)N/N=C2/CC[C@H](C(C)(C)C)C[C@@H]2C)cc1`
A: 42.1 µM

Q: // returns reported TGI for input COC(=O)CCC(=O)C(C#N)c1ccc(Cl)cc1Cl (stereo not drawn)
A: > 100 µM

Q: // returns reported TGI for input `COc1ccc(-n2nnnc2C2(Nc3ccccc3)CCN(Cc3ccccc3)CC2)cc1`
A: 15.4 µM

Q: // returns reported TGI for input `CCOCC[P+](c1ccccc1)(c1ccccc1)c1ccccc1`
A: > 100 µM

Data origin: PubChem BioAssay (NCI)
